Origin of values: ChEMBL document CHEMBL2157974

System: MCF7
Test: Cytotoxicity against human MCF7 cells after 72 hrs by MTS/PMS assay
Format: functional, cell-based
Measurement context: MCF7, 72 h
pIC50 values by entry
Note on units: pIC50 is unitless, being -log10 of a concentration expressed in mol/L.

Query: Which pIC50 value is on record for `C[C@]12CCC(=O)c3coc(c31)C(=O)[C@@H]1[C@@H]2CC[C@]2(C)C(=O)CC[C@@H]12` ?
Response: 4.64

# input for lookup
Query: Which pIC50 value is on record for `C=CCN/C=C1/C(=O)CC[C@@]2(C)C1=C(O)C(=O)[C@@H]1[C@@H]2CC[C@]2(C)C(=O)CC[C@@H]12` ?
Response: 4.42
